Source: patent US20240116985A1

# TGT: full-length beta-Catenin (Uniprot ID P35222) (Homo sapiens, UniProt P35222)
# Construct: 10 nM full-length beta-Catenin (Uniprot ID P35222)
# Sequence (P35222 1-781): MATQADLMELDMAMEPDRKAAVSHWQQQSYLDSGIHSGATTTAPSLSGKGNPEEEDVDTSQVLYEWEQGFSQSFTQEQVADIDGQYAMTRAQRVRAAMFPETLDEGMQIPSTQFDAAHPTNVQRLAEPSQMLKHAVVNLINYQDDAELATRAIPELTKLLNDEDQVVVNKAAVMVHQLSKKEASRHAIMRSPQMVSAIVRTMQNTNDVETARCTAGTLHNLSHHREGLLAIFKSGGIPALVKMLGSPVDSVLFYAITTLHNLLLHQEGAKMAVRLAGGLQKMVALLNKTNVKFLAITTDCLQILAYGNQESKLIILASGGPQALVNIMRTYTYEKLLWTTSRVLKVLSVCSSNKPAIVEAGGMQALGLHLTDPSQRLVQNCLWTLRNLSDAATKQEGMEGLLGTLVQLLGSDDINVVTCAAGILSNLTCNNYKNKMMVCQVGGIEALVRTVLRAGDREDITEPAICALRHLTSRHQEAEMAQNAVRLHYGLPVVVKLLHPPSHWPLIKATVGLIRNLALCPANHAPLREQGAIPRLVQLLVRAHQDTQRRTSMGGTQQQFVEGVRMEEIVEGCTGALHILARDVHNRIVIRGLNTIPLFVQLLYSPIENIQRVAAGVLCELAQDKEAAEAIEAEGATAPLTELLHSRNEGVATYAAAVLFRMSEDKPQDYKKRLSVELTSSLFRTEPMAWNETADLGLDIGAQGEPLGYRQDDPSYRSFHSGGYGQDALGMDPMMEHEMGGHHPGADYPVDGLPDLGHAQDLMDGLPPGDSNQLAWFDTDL
# EXPERIMENT SUMMARY: Fluorescence polarization IC50 (beta-catenin / 5FAM-TCF4 10-53 competition)
# Assay type: binding
# MEASUREMENT CONDITIONS: fluorescence polarization; read-out: beta-Catenin FP IC50
pIC50: −log10 of the molar value.
EXPERIMENTAL READOUT: pIC50

{"COMPOUND": "CC[C@H](C)[C@@H]1NC(=O)[C@H](CC(=O)O)NC(=O)[C@]2(CC=CCCCC3(CCCC=CCCCCCC[C@@](C)(C(=O)N[C@@H](Cc4ccccc4)C(=O)N[C@@H](Cc4csc5ccccc45)C(=O)N[C@@H](Cc4c[nH]cn4)C(N)=O)NC(=O)[C@H](CC(N)=O)NC(=O)[C@H](Cc4ccccc4)NC(=O)[C@H](C)NC(=O)[C@H](C)NC(=O)[C@H](CC(=O)O)NC(=O)[C@H](CC(=O)O)NC3=O)NC1=O)CCCN2C(C)=O (stereo partly drawn) [I-469]", "TGT": "full-length beta-Catenin (Uniprot ID P35222) (Homo sapiens, UniProt P35222)", "READING": 7.57}
{"COMPOUND": "CC(=O)N1CCC[C@]12CC=CCCCC1(CCCC=CCCCOC(=O)N3CC[C@@](C(=O)N[C@@H](Cc4ccsc4)C(=O)N[C@@H](Cc4c[nH]c5cc(Cl)ccc45)C(=O)N[C@@H](CCC(N)=O)C(N)=O)(C3)NC(=O)[C@H](CC(C)C)NC(=O)[C@H](Cc3ccccc3)NC(=O)[C@H](C)NC(=O)[C@H](C)NC(=O)[C@H](CC(=O)O)NC(=O)[C@H](CC(=O)O)NC1=O)NC(=O)[C@H](CC(C)(C)C)NC(=O)[C@H](CC(=O)O)NC2=O (stereo partly drawn)", "TGT": "full-length beta-Catenin (Uniprot ID P35222) (Homo sapiens, UniProt P35222)", "READING": 7.05}
{"COMPOUND": "CC(=O)N1CCC[C@]12CC=CCCCC1(CCCC=CCCCOC(=O)N3CC[C@@](C(=O)N[C@@H](Cc4ccsc4)C(=O)N[C@@H](Cc4csc5ccccc45)C(=O)N[C@@H](CCC(N)=O)C(N)=O)(C3)NC(=O)[C@H](CC(C)C)NC(=O)C(Cc3cccc(C(=O)Oc4ccccc4)c3)NC(=O)[C@H](C)NC(=O)[C@H](C)NC(=O)[C@H](CN(CC(=O)O)CC(F)(F)F)NC(=O)[C@H](CC(=O)O)NC1=O)NC(=O)[C@H](CC(C)(C)C)NC(=O)[C@H](CC(=O)O)NC2=O (single isomer, unassigned) [I-2151]", "TGT": "full-length beta-Catenin (Uniprot ID P35222) (Homo sapiens, UniProt P35222)", "READING": 7.24}
{"COMPOUND": "CC(=O)N1CCC[C@]12CC=CCCCC1(CCCC=CCCCCCC[C@@](C)(C(=O)N[C@@H](Cc3ccccc3)C(=O)N[C@@H](Cc3csc4ccccc34)C(=O)N[C@@H](CCC(N)=O)C(N)=O)NC(=O)[C@H](CC(N)=O)NC(=O)[C@H](Cc3ccccc3)NC(=O)[C@H](C)NC(=O)[C@H](C)NC(=O)[C@H](CCC(=O)O)NC(=O)[C@H](CC(=O)O)NC1=O)NC(=O)[C@H](C)NC(=O)[C@H](CC(=O)O)NC2=O (stereo partly drawn) [I-424]", "TGT": "full-length beta-Catenin (Uniprot ID P35222) (Homo sapiens, UniProt P35222)", "READING": 6.77}
{"COMPOUND": "CC[C@@H]1NC(=O)[C@H](CC(=O)O)NC(=O)[C@]2(CC=CCCCC3(CCCC=CCCCCCC[C@@](C)(C(=O)N[C@@H](Cc4ccccc4)C(=O)N[C@@H](Cc4csc5ccccc45)C(=O)N[C@@H](Cc4c[nH]cn4)C(N)=O)NC(=O)[C@H](CCC(N)=O)NC(=O)[C@H](Cc4ccccc4)NC(=O)[C@H](C)NC(=O)[C@H](C)NC(=O)[C@H](CCC(=O)O)NC(=O)[C@H](CC(=O)O)NC3=O)NC1=O)CCCN2C(C)=O (stereo partly drawn) [I-570]", "TGT": "full-length beta-Catenin (Uniprot ID P35222) (Homo sapiens, UniProt P35222)", "READING": 7.25}
{"COMPOUND": "CC[C@H](C)[C@@H]1NC(=O)[C@H](CC(=O)O)NC(=O)[C@]2(CC=CCCCC3(CCCC=CCCCCCC[C@@](C)(C(=O)N[C@@H](Cc4ccccc4)C(=O)N[C@@H](Cc4csc5ccccc45)C(=O)N[C@@H](CCC(N)=O)C(N)=O)NC(=O)[C@H](CCC(N)=O)NC(=O)[C@H](Cc4ccccc4)NC(=O)[C@H](C)NC(=O)[C@H](Cc4c[nH]c5ccccc45)NC(=O)[C@H](CCC(=O)O)NC(=O)[C@H](CC(=O)O)NC3=O)NC1=O)CCCN2C(C)=O (stereo partly drawn)", "TGT": "full-length beta-Catenin (Uniprot ID P35222) (Homo sapiens, UniProt P35222)", "READING": 6.74}
{"COMPOUND": "C#CC(=O)N1CCC[C@]12CC=CCCCC1(CCCC=CCCCOC(=O)N3CC[C@@](C(=O)N[C@@H](Cc4ccccc4Cl)C(=O)N[C@@H](Cc4csc5ccccc45)C(=O)N[C@@H](C)C(N)=O)(C3)NC(=O)[C@H](CC(C)C)NC(=O)[C@H](Cc3ccccc3)NC(=O)[C@H](C)NC(=O)[C@H](C)NC(=O)[C@H](Cc3cccc(C(=O)O)c3)NC(=O)[C@H](CC(=O)O)NC1=O)NC(=O)[C@H](CC(C)(C)C)NC(=O)[C@H](CC(=O)O)NC2=O (stereo partly drawn)", "TGT": "full-length beta-Catenin (Uniprot ID P35222) (Homo sapiens, UniProt P35222)", "READING": 7.92}
{"COMPOUND": "CC(=O)N1CCC[C@]12CC=CCCCC1(CCCC=CCCCCOC(=O)N3CC(C(=O)N[C@@H](Cc4ccccc4C(F)(F)F)C(=O)N[C@@H](Cc4csc5ccccc45)C(=O)N[C@@H](CCC(N)=O)C(N)=O)(C3)NC(=O)[C@H](CC(C)C)NC(=O)[C@H](Cc3ccccc3)NC(=O)[C@H](C)NC(=O)C(C)(C)NC(=O)[C@H](Cc3cccc(C(=O)O)c3)NC(=O)[C@H](CC(=O)O)NC1=O)NC(=O)[C@H](CC(C)(C)C)NC(=O)[C@H](CC(=O)O)NC2=O (stereo partly drawn) [I-2615]", "TGT": "full-length beta-Catenin (Uniprot ID P35222) (Homo sapiens, UniProt P35222)", "READING": 6.94}
{"COMPOUND": "CC(=O)N1CCC[C@]12CC=CCCCC1(CCCC=CCCCOC(=O)N3CC[C@@](C(=O)N[C@@H](Cc4ccsc4)C(=O)N[C@@H](Cc4csc5ccccc45)C(=O)N[C@H](CO)[C@@H](C)O)(C3)NC(=O)[C@H](Cc3ccccc3C(F)(F)F)NC(=O)[C@H](Cc3ccccc3)NC(=O)[C@H](C)NC(=O)[C@H](C)NC(=O)[C@H](CC(=O)O)NC(=O)[C@H](CC(=O)O)NC1=O)NC(=O)[C@H](CC(C)(C)C)NC(=O)[C@H](CC(=O)O)NC2=O (stereo partly drawn)", "TGT": "full-length beta-Catenin (Uniprot ID P35222) (Homo sapiens, UniProt P35222)", "READING": 7.74}
